B1: FEM1A (parent)
chain: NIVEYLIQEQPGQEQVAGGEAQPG

Variants of: B1
Experimental Details: protein stability index of a GFP-peptide fusion (GPS, HEK-293T) (PSI 1-6); higher = more stable;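 further: lentivirally expressed fusions sorted by FACS into six bins by GFP to DsRed ratio, PSI derived from sequencing read proportions per bin multiplied by bin number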
Conditions: c terminus: a fixed tail appended
Respond with label 1 for protein stability index values of 3 and above, label 0 for values below.

As a guide, the following entries are already answered.
E4H
label 1
P23Y
label 1
G12D
label 1
Q8R
label 1
E4F
label 0

[ask] Entry `I7Y` : is its protein stability index no less than 3?
[reply] label 1

[ask] Can you check `N1I` next?
[reply] label 1

[ask] Can you check `Q8H` next?
[reply] label 1

[ask] Can you check `G24D` next?
[reply] label 1

[ask] Can you check `I2F` next?
[reply] label 1

[ask] Can you check `A17P` next?
[reply] label 1

[ask] Can you check `E4C` next?
[reply] label 1

[ask] Can you check `P11W` next?
[reply] label 0

Reference source for all entries: the supplement of paper PMC10567573
